Test Target: PCV2 dcapsid mutant R51A (Porcine circovirus 2, UniProt O56129, R51A)
Construct: hexahistidine (N)
Assay: Microscale thermophoresis assay (MST), dcapsid mutant R51A
Measurement Context: read-out: Kd between EGCG and capsid mutant R51A
Readout Kind: Kd (µM)
Response body: numeric value in µM, unit text excluded.

Entry under test: O=C(O[C@@H]1Cc2c(O)cc(O)cc2O[C@@H]1c1cc(O)c(O)c(O)c1)c1cc(O)c(O)c(O)c1 [EGCG, Epigallocatechin gallate] . Its Kd was 591

----------
Test Target: PCV2 dcapsid mutant G54A (Porcine circovirus 2, UniProt O56129, G54A)
Construct: hexahistidine (N)
Sequence (O56129 42-233 G54A): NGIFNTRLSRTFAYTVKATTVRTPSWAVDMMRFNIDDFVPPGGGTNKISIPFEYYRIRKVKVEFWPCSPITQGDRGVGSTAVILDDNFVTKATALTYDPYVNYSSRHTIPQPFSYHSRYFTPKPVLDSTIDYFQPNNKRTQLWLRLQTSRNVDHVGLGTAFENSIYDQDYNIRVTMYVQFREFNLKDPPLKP
Assay: Microscale thermophoresis assay (MST), dcapsid mutant G54A
Measurement Context: read-out: Kd between EGCG and capsid mutant G54A
Readout Kind: Kd (µM)
Response body: numeric value in µM, unit text excluded.

Entry under test: O=C(O[C@@H]1Cc2c(O)cc(O)cc2O[C@@H]1c1cc(O)c(O)c(O)c1)c1cc(O)c(O)c(O)c1 [EGCG, Epigallocatechin gallate] . Its Kd was 99.3
